# Tested on: 786-0 renal
# Experimental protocol: NCI-60 one-dose screen, 48 h (100 = growth as untreated, 0 = no growth, -100 = all killed)
# Assay context: 10 µM unless noted
The panel holds about 83,000 compounds, 20% with a hit somewhere; the sample as a whole holds those more often.
The compounds listed here are annotated with their growth.
Reported property: growth (%)

[[record]]
compound = "Oc1ccccc1-c1nnc(SCc2ccc(O)c3ncccc23)n1-c1ccccc1"
target_of_assay = "786-0 renal"
meas_value = 20.1

[[record]]
compound = "NC(=O)c1c(NC(=O)c2cccc(C(F)(F)F)c2F)sc2c1CCC(=O)C2"
target_of_assay = "786-0 renal"
meas_value = 30.2

[[record]]
compound = "CCCC(=O)NC(c1cccnc1)c1cc(Cl)c2cccnc2c1O (stereo not given)"
target_of_assay = "786-0 renal"
meas_value = 50.9

[[record]]
compound = "Clc1ccccc1/C=C/c1nn2c(-c3ccncc3)nnc2s1"
target_of_assay = "786-0 renal"
meas_value = 96.9

[[record]]
compound = "CCCCCc1ccc(S(=O)(=O)N(C(C)=O)c2cccc(-c3csc(N(CCN4CCN(C)CC4)C(C)=O)n3)c2)cc1"
target_of_assay = "786-0 renal"
meas_value = 6.89

[[record]]
compound = "O=C(Nc1cc(Cl)cc(Cl)c1)Nc1ccc2oc(=O)ccc2c1"
target_of_assay = "786-0 renal"
meas_value = 23.9

[[record]]
compound = "COc1ccc2c(c1)c(-c1nnc(N)nc1-c1cn(C)c3ccccc13)cn2C"
target_of_assay = "786-0 renal"
meas_value = 90.7

[[record]]
compound = "Nc1nc(-c2cccc([N+](=O)[O-])c2)c(N=Nc2ccccc2[N+](=O)[O-])s1"
target_of_assay = "786-0 renal"
meas_value = -66.4

[[record]]
compound = "COc1ccc2c(C3=C(c4cn(C)c5ccccc45)C(=O)NC3=O)coc2c1"
target_of_assay = "786-0 renal"
meas_value = 44.9

[[record]]
compound = "c1cncc(-c2cn3nc(-c4c[nH]c5ccccc45)sc3n2)c1"
target_of_assay = "786-0 renal"
meas_value = 22.5

[[record]]
compound = "Cc1ccc(Cc2cnc(NC(=O)/C(C#N)=C/c3ccc(-c4ccc(Cl)cc4)o3)s2)cc1"
target_of_assay = "786-0 renal"
meas_value = 99.9

[[record]]
compound = "COc1ccc(S(=O)(=O)n2cc(C=O)c3ccccc32)c(OC)c1"
target_of_assay = "786-0 renal"
meas_value = 94.2

[[record]]
compound = "COc1cc(/C=C/C(=O)c2ccc(NC(=O)COc3cccc4cccnc34)cc2)cc(OC)c1OC"
target_of_assay = "786-0 renal"
meas_value = 89

[[record]]
compound = "O=C1c2c(O)cc(O)cc2O[C@@H](c2ccc(O)cc2)[C@@H]1c1c(O)cc(O)c2c(=O)cc(-c3ccc(O)c(O)c3)oc12"
target_of_assay = "786-0 renal"
meas_value = 100

[[record]]
compound = "Cc1cc(O)c2c(c1)C(=O)C(c1c(C)cc3c(c1O)C(=O)C=CC3=O)=CC2=O"
target_of_assay = "786-0 renal"
meas_value = 37.4

[[record]]
compound = "NC(N)=NS(=O)(=O)c1ccc(N=NC2C(=O)NN(c3ccccc3)C2=O)cc1 (stereo not given)"
target_of_assay = "786-0 renal"
meas_value = 100

[[record]]
compound = "N/C(=N\\c1nc2c(Cl)cccc2s1)C(Cl)(Cl)Cl"
target_of_assay = "786-0 renal"
meas_value = 90.9

[[record]]
compound = "CC(C)SC1=NC(=C(C(=N1)NC2=ClC=CC=C2)C#N)C3=CC=CC=C3"
target_of_assay = "786-0 renal"
meas_value = 34.7

[[record]]
compound = "CC(C)c1nn(-c2ccccc2)c(N2CCCCC2)c1/C=N/NC(N)=S"
target_of_assay = "786-0 renal"
meas_value = 101

[[record]]
compound = "COc1ccc(-c2nc3cc(Cl)c(Cl)cc3n2CC(=O)N=Nc2c(O)[nH]c3ccc(Br)cc23)cc1"
target_of_assay = "786-0 renal"
meas_value = -17.3

